The origin of these recorded values is patent US5601801A.

assay: Biodistribution of ^131 I-3 in CD-1 Mice, normal and blocked with lisinopril; type: in vivo; conditions: mouse, large intestine, iv, 1 uCi, 1.5 hours, blocked (lisinopril); read-out: Biodistribution, lg. Intest.
parameter: tissue uptake at 1.5 h (%ID/g)
Give bare numbers, in %ID/g.

Query block: Quick check: tissue uptake at 1.5 h of O=C(NCCCC[C@H](N[C@@H](CCc1ccccc1)C(=O)O)C(=O)N1CCC[C@H]1C(=O)O)c1cccc([131I])c1 [^131 I-3, Lisinopril N^ε -radioiodobezamide] ?
Result block: 1.4

* * *

Test: Biodistribution of ^131 I-3 in CD-1 Mice, normal and blocked with lisinopril
Format: in vivo
Settings: mouse, stomach, iv, 1 uCi, 6.0 hours, blocked (lisinopril); read-out: Biodistribution, Stomach
Method: It is well known that there are high ACE concentrations in the lungs, kidneys, pre-optic region of the brain and the blood.^4 Localization of the radioactivity in these organs was expected. […] A blocking study was undertaken to differentiate between specific and non-specific binding. ^131 I-3 was prepared as described above and used in this experiment. The experiment was carried out using male CD-1 mice. […] The desired organs were rinsed, blotted, weighed and counted. […]
parameter: tissue uptake at 6 h (%ID/g)
Numbers only, in %ID/g.

Query block: Which value of tissue uptake at 6 h has been reported for O=C(NCCCC[C@H](N[C@@H](CCc1ccccc1)C(=O)O)C(=O)N1CCC[C@H]1C(=O)O)c1cccc([131I])c1 [^131 I-3, Lisinopril N^ε -radioiodobezamide] in the records?
Result block: 4.2
